Target: UniProt:Q07817
Sequence (Q07817 whole entry, looked up): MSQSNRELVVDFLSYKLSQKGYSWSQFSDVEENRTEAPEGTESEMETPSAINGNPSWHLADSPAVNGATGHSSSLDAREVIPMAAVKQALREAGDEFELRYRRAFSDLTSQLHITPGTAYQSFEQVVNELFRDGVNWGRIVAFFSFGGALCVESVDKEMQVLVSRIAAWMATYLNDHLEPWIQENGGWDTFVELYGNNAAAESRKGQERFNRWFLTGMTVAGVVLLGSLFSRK
Assay: Bcl-XL binding to Bim peptide disruption – biochemical, multiplexed, bead flow cytometry, human Bcl-XL, dose response (AID 1322); also: test concentration not given here
Conditions: Bead-based flow cytometry, MCF
Active and inactive are the calls of the source. No rule for the calls is given here.
value_type: inhibition

compound | value_type | observed_value
O=C(Nc1n[nH]c(C(F)(F)F)n1)C1CC1 | inhibition | inactive
COc1ccc(C(=O)Nc2ccc(C(=O)OCC(=O)c3cccc4ccccc34)cc2)cc1 | inhibition | inactive
Cn1c(=O)c(C(=O)COC(=O)c2cc(-c3ccco3)nc3ccccc23)c(N)n(CC2CC2)c1=O | inhibition | inactive
COc1ccc(C2CC(=O)C3=C(C2)Nc2ccccc2NC3c2coc3ccccc3c2=O)cc1OC (configuration not stated) | inhibition | inactive
Cc1nn(-c2ccc(Cl)cc2)c(Cl)c1/C=C(\C#N)C(N)=O | inhibition | inactive
CCOc1cc(/C=N/NC(=O)c2cccs2)cc([N+](=O)[O-])c1O | inhibition | inactive
Cc1noc(C)c1COc1ccc(C(=O)Nc2cccnc2)cc1 | inhibition | inactive
O=C1C(Cl)=C(Nc2ccccc2O)C(=O)N1c1ccccc1 | inhibition | inactive
Cc1csc(SCCn2c(N3CCN(c4ccccc4)CC3)nc3c2c(=O)[nH]c(=O)n3C)n1 | inhibition | inactive
Cc1sc2nc(C(C)C)nc(SCC(=O)N3c4ccccc4CC3C)c2c1C (configuration not stated) | inhibition | inactive
COc1cc(N=c2ssnc2Cl)cc(OC)c1 | inhibition | inactive
CNC(=O)/C(C#N)=C/c1c(N(Cc2ccccc2)Cc2ccccc2)nc2c(C)cccn2c1=O | inhibition | inactive
CCCC1(C(=O)OCC)NC(c2cc(OC)c(OC)c(OC)c2)C2C(=O)N(CC)C(=O)C21 (configuration not stated) | inhibition | inactive
CN(C)S(=O)(=O)N(CC(=O)Nc1ccccc1C(F)(F)F)c1ccccc1 | inhibition | inactive
Nc1c(C(=O)NCc2ccco2)sc2nc3c(cc12)C(=O)CCC3 | inhibition | inactive
COc1cc(/C=C2\S/C(=N/S(=O)(=O)c3ccccc3)NC2=O)c([N+](=O)[O-])cc1OC | inhibition | inactive
CC1Nc2ccccc2C(=O)N1NS(C)(=O)=O (configuration not stated) | inhibition | inactive
COc1ccc(S(=O)(=O)NCCSc2ccc(Cl)cc2)cc1OC | inhibition | inactive
O=C(NCCc1ccccc1)c1ccc2nc(-c3ccco3)c(-c3ccco3)nc2c1 | inhibition | inactive
COCCNC(=S)Nc1cc(OC)c(OC)cc1C#N | inhibition | inactive
COc1ccccc1NC(=O)CSc1nnc(-c2ccco2)n1Cc1ccco1 | inhibition | inactive
Cc1ccc2nc3c(cc(C(N)=S)c(=N)n3CCCOC(C)C)c(=O)n2c1 | inhibition | inactive

* * *

Target: Bcl-2-like protein 1 (Homo sapiens)
Assay: Bcl-XL binding to Bim peptide disruption – biochemical, multiplexed, bead flow cytometry, human Bcl-XL, dose response (AID 1322); also: test concentration not given here
Conditions: Bead-based flow cytometry, MCF
Activity calls are given as the source filed them. The rule behind the calls is not given here.
value_type: inhibition

compound | observed_value
Fc1ccccc1-n1cc(-c2ccccc2)[nH]c1=S | inactive
C=CCSc1nc(N)c2c(C)c(C)sc2n1 | inactive
O=C(Nc1cccc(Cl)c1)Nc1ccc(Cl)cn1 | inactive
COc1cc(/C=C2\SC(=S)NC2=O)ccc1OS(=O)(=O)c1ccccc1 | inactive
Cc1ccc(NC(=O)CC2S/C(=N/N=C/c3c[nH]c4ccccc34)NC2=O)cc1 (stereo unspecified) | inactive
CCOC(=O)C1=C(Cc2ccc(C)cc2)C(=O)c2ccccc2C1=O | inactive

// data source = PubChem BioAssay AID1322
